Reference source: patent US20250276077A1

molecular target: Human EphA2 (ephrin receptor A2) on cells (human, UniProt P29317 25-976); experiment: cell-based or functional assay
Sequence (P29317 25-976): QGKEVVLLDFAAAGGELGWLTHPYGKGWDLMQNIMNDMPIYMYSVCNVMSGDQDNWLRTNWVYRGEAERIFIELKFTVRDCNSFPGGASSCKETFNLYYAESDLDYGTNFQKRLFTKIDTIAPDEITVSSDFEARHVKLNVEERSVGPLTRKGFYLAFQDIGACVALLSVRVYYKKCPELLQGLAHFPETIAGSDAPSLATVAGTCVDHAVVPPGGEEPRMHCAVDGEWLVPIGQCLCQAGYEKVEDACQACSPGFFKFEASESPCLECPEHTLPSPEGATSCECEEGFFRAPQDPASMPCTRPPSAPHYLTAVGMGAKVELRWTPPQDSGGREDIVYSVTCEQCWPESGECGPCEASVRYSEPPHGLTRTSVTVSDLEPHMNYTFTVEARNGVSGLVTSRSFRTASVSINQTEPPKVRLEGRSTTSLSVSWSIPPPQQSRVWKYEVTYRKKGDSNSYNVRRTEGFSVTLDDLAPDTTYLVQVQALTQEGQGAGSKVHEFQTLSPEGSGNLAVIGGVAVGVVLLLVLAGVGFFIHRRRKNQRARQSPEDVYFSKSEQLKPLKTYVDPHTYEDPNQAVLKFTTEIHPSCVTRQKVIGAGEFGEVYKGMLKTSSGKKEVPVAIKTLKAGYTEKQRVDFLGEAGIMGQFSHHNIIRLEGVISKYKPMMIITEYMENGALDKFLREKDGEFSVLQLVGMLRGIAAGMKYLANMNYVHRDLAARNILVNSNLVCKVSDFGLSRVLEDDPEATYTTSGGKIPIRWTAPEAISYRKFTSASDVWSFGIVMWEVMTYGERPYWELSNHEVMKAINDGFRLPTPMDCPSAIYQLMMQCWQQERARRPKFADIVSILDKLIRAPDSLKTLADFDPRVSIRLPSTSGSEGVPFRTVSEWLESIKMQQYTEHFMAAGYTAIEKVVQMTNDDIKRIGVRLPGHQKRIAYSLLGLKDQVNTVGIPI
reported endpoint: ADCC EC50 (nM)
Report as a plain number; the unit nM is understood.

Worked cases, ADCC EC50 given:
| binder | unit descriptor | ADCC EC50 |
| --- | --- | --- |
| AB-010367 (antibody, V domains shown) VH: QVQLQQWGAGLLKPSETLSLTCAVYGGSFSGYYWSWIRQPPGKGLEWIGEINHQGSINYNNYNPSLKSRVTISVDTSKNQFSLKLSSVTAADTAVYYCAKPLRPHCTNGVCYSGDAFDIWGQGTMVTVAS VL: SYVLTQPPSVSVAPGQTARITCGGNNIGSKNVHWYQQKPGQAPVLVVYDDSDRPSGIPERFSGSNSGNTATLTISRVEAGDEADYYCQVWDSSSDHVVFGGGTKLTVL | nM | 42.7 |
| AB-010365 (antibody, V domains shown) VH: QVQLQQWGAGLLKPSETLSLTCAVYGGSFSGYYWSWIRQPPGKGLEWIGEINHAGSINYNNYNPSLKSRVTISVDTSKNQFSLKLSSVTAADTAVYYCAKPLRPHCTNGVCYSGDAFDIWGQGTMVTVAS VL: SYVLTQPPSVSVAPGQTARITCGGNNIGSKNVHWYQQKPGQAPVLVVYDDSDRPSGIPERFSGSNSGNTATLTISRVEAGDEADYYCQVWDSSSDHVVFGGGTKLTVL | nM | 34.6 |
| AB-010357 (antibody, mouse IgG2a, V domains shown) VH: QVQLQQWGAGLLKPSETLSLTCAVYGGSFSDYYWSWIRQPPGKGLEWIGEINHRGSINYNNYNPSLKSRVTISVDTSKNQFSLKLSSVTAADTAVYYCAKPLRPHCTNGVCYSGDAFDIWGQGTMVTVAS VL: SYVLTQPPSVSVAPGQTARITCGGNNIGSKNVHWYQQKPGQAPVLVVYDDSDRPSGIPEQFSGSNSGNTATLTISRVEAGDEADYYCQVWDSSSDHVVFGGGTKLTVL | nM | 11.6 |

What the record says about AB-010361 (antibody, mouse IgG2a, V domains shown) VH: QVQLQQWGAGLLKPSETLSLTCAVYGGSFSGYYWSWIRQPPGKGLEWIGEINHRGSINYNNYNPSLKSRVTISVDTSKNQFSLKLSSVTAADTAVYYCAKPLRPHCTNGVCYSGDAFDIWGQGTMVTVAS VL: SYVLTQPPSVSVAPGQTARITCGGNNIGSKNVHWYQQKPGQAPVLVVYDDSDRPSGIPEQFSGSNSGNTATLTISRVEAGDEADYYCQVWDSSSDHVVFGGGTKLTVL : ADCC EC50 is 3.1

What the record says about AB-010362 (antibody, mouse IgG2a, V domains shown) VH: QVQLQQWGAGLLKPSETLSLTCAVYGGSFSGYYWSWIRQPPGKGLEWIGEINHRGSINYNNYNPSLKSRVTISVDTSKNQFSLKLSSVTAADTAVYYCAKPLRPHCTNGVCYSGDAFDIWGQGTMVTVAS VL: SYVLTQPPSVSVAPGQTARITCGGNNIGSKNVHWYQQKPGQAPVLVVYDDSDRPSGIPERFSGSNSGNTATLTISRVEAGDEADYYCQVWDSSSDHLVFGGGTKLTVL : ADCC EC50 is 12.8
